The reader will find reported z-score of prototroph abundance values listed item by item below.
# Tested on: Saccharomyces cerevisiae BY4741 SeMeCo community
# PROCEDURE_SUMMARY: z-score of prototroph abundance vs DMSO median; higher = larger share of this subpopulation than in DMSO controls
# CONDITION_SET: 10 µM; 24 h; SM minimal medium; subpopulation (auxotrophy): Prototroph
Structures can show the parent of a compound that is named as a salt.
Answer using only a numeral; do not append any unit.

Recorded z-score of prototroph abundance, per entry:
COMPOUND	TESTED_SYSTEM	ASSAY_VALUE
Nc1ccc(S(=O)(=O)NC(=O)c2ccccc2)cc1 [Sulfabenzamide]	Saccharomyces cerevisiae BY4741 SeMeCo community	0.8
CN1CCCN=C1/C=C/c1cccs1 [Pyrantel Pamoate]	Saccharomyces cerevisiae BY4741 SeMeCo community	0.2
CCCCN1CCCCC1C(=O)Nc1c(C)cccc1C (stereo not drawn) [Bupivacaine HCl]	Saccharomyces cerevisiae BY4741 SeMeCo community	0.23
CN1CCN(CCCN2c3ccccc3Sc3ccc(C(F)(F)F)cc32)CC1 [Trifluoperazine 2HCl]	Saccharomyces cerevisiae BY4741 SeMeCo community	0.01

### Prompt For the compound O=C(O)Cc1ccccc1Nc1c(Cl)cccc1Cl [Diclofenac Sodium] , what z-score of prototroph abundance is on record?
### Response 1.13

### Prompt If you can, please state the reported z-score of prototroph abundance value of C[C@H](NCc1ccc(OCc2cccc(F)c2)cc1)C(N)=O [Safinamide Mesylate] .
### Response -0.78

### Prompt Recorded z-score of prototroph abundance of CN1C2CCCC1CC(NC(=O)c1nn(C)c3ccccc13)C2 (stereo not drawn) [Granisetron] , please.
### Response -0.04

### Prompt Return reported z-score of prototroph abundance; argument: NC(=O)c1ncn([C@@H]2O[C@H](CO)[C@@H](O)[C@H]2O)n1
### Response -0.16

### Prompt Record request: z-score of prototroph abundance value, item N#C/C(=C1/SC[C@@H](c2ccc(Cl)cc2Cl)S1)n1ccnc1
### Response -8.67

### Prompt Entry Cc1nccn1CC1CCc2c(c3ccccc3n2C)C1=O (stereo not drawn) [Ondansetron Hydrochloride Dihydrate] has what z-score of prototroph abundance?
### Response 0.12

### Prompt // z-score of prototroph abundance lookup, key: CC1(C)[C@H](C(=O)O)N2C(=O)C[C@H]2S1(=O)=O [Sulbactam]
### Response 0.75

### Prompt Any idea what z-score of prototroph abundance was measured for NC(=O)c1cn(Cc2c(F)cccc2F)nn1 [Rufinamide] ?
### Response -0.37

### Prompt Would you kindly share the measured z-score of prototroph abundance for O=C(C1CCCCC1)N1CC(=O)N2CCc3ccccc3C2C1 (stereo not drawn) ?
### Response -0.09

### Prompt Entry Nc1c(CC(=O)O)cccc1C(=O)c1ccccc1 [Amfenac Sodium Monohydrate] has what z-score of prototroph abundance?
### Response 0.49

### Prompt Would you mind telling me what z-score of prototroph abundance value was observed for CO/N=C(\C(=O)N[C@@H]1C(=O)N2C(C(=O)O)=CCS[C@H]12)c1csc(N)n1 [Ceftizoxime] ?
### Response 0.78

### Prompt Which z-score of prototroph abundance value belongs to Cc1onc(-c2ccccc2)c1C(=O)N[C@@H]1C(=O)N2[C@@H]1SC(C)(C)[C@@H]2C(=O)O [Oxacillin sodium monohydrate] ?
### Response -0.42

### Prompt What value of z-score of prototroph abundance has been recorded for this entry: CC1(C)S[C@@H]2[C@H](NC(=O)Cc3ccccc3)C(=O)N2[C@H]1C(=O)O [Benzathine penicilline]
### Response 0.52

### Prompt What value of z-score of prototroph abundance has been recorded for this entry: Nc1nc(O)c2ncn(CCC(CO)CO)c2n1
### Response -0.05
